# MEASUREMENT TARGET: T1, SWSAP1 K18A (Walker A);hSWS1 (Homo sapiens;Homo sapiens, UniProt Q6NVH7;Q19AV6 22-250;1-140, K39A|)
# T1 sequence 1: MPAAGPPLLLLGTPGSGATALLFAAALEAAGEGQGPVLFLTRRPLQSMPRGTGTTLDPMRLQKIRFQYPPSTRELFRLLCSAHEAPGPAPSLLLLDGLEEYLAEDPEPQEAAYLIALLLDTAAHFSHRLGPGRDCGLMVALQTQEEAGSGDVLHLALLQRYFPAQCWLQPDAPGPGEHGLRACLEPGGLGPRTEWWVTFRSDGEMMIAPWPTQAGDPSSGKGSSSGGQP
# T1 sequence 2: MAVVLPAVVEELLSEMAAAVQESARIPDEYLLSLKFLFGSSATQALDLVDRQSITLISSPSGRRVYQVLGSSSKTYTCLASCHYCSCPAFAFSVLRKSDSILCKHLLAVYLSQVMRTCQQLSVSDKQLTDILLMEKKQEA
# PROCEDURE TEXT: fluorescence polarization; no nucleotide; FPA: 5 nM 6-FAM DNA, 37 C, 2 mM nucleotide where stated (buffer not given in material); EMSA: 0.05 uM 6-FAM DNA, 5%/15% native PAGE; RAD51 filaments: 2 mM ATP
# CONDITION PARAMETERS: protein: recombinant;recombinant; tags: N-terminal 6xHis-TEV, cleaved;none; copies: 1;1; label: 3' 6-FAM on strand 1; 3' overhang 20 nt
VALUE KIND: Kd (µM)
Numbers only, in µM.

Lab book: Kd of 3'-overhang (dsDNA) DNA 1: CTTGACAAGCTTGCGCACT DNA 2: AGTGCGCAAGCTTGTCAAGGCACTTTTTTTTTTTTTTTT noted as 7.1
